# measured.on: SARS-CoV-2 N protein RNA-binding domain (SARS-CoV-2, UniProt P0DTC9 44-180)
# procedure.details: Octet (BLI) kinetics
measured.attribute: pKd
// pKd: -log10(molar conc.)

Worked set:
NP3-E4 (antibody, V domains shown) VH: EVQLVESGPGLVAPSQSLSITCTVSGFSLTSYGVSWVRQPPGKGLEWLGVIWGDGSTNYHSALISRLSINKDNSKSQVFLRLNSLQTDDTATYYCAKEDDGYLFYFDYWGQGTTLTVSS VL: DIKMTQSPSSLSASLGDRVTISCSASQDISDYLNWYQQKPDGTVKLLIYYTSSLHSGVPSRFSGSGSGTDYSLTISNLEPEDIATYYCQQYSKLPYTFGGGTKLEIK: 8.46
NP3-E5 (antibody, V domains shown) VH: EVQLVESGGGLVKPGGSLKLSCAASGFTFSDYYMSWVRQTPEKRLEWVATISDGGNYTYYPDSVKGRFTISRDNAKNNLYLQMSSLKSEDTAMYYCARGSTYGNPLDHWGQGTTLTVSS VL: DIQMTQTTSSLSASLGDRVTINCSASQGISNYLNWYQQKPDGTVKLLIYYTSILHSGVPSRFSGSGSGTDYSLTISNLEPEDIATYYCQQYSKLPFTFGSGTKLEIK: 8.86

With those in mind, consider the next binder.
Asked: Quickly give me recorded pKd for NP3-G6 (antibody, V domains shown) VH: EVQLVESGGGLVKPGGSLKLSCAASGFTFSDYYMSWVRQTPEKRLEWVATISDGGSYTYYPDSVKGRFTISRDNAKNNLYLHMSSLKSEDTAMYYCARGSTYGNPLDYWGQGTSVTVSS VL: DIQMTQSPASLSASLGDRVTINCSASQGISNYLNWYQQKPDGTVKLLIYFTSSLHSGFPSRFSGSGSGTDFSLTISNLEPEDIATYYCQQYSKLPFTFGSGTKLEIK
Given back: 9.06

From: patent US20250320278A1
